The measured values listed here are drawn from paper PMC10004634.

Attribute measured: pIC50
Keep in mind that pIC50 stands for -log10 of concentration in molar terms.

Q. For ERBB2 (Homo sapiens, UniProt P04626), provide pIC50 of C=CC(=O)N1CCC([C@@H]2CCNc3c(C(N)=O)c(-c4ccc(Oc5ccccc5)cc4)nn32)CC1 please.
A. 7.46

----------
Molecular target: TXK (Homo sapiens, UniProt P42681)
Sequence (P42681 1-527): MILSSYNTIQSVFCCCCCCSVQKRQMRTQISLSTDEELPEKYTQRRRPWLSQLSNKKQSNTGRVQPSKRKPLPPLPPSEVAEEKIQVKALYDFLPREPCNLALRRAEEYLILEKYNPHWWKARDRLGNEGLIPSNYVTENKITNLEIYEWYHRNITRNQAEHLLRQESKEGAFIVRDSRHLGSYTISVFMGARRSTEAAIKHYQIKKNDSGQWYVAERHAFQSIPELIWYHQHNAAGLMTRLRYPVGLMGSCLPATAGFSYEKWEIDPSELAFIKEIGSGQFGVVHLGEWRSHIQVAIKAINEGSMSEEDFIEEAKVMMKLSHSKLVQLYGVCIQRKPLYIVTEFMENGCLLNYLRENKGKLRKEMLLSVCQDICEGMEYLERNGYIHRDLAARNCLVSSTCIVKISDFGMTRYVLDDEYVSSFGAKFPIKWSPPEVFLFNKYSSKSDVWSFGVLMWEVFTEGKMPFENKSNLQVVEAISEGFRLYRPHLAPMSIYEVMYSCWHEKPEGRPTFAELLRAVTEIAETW
Assay: Z'-Lyte kinase inhibition assay
Format: biochemical
Parameters: purchased Thermo Fisher Scientific (Invitrogen Z'-Lyte service)
Details: 60 min preincubation
I'd appreciate it if you could supply pIC50 values for the items below.
Keep in mind that pIC50 stands for -log10 of concentration in molar terms.

Q. What pIC50 value was documented for this compound, CC#CC(=O)N1CCC[C@H]1c1nc(-c2ccc(C(=O)Nc3ccccn3)cc2)c2c(N)nccn12 [Acalabrutinib] ?
A. 6.56

Q. What pIC50 value was documented for this compound, CC#CC(=O)N1CC[C@@H](n2c(=O)n(-c3ccc(Oc4ccccc4)cc3)c3c(N)ncnc32)C1 [Tirabrutinib] ?
A. 7.26

Q. What pIC50 value was documented for this compound, C=CC(=O)N1CCC([C@@H]2CCNc3c(C(N)=O)c(-c4ccc(Oc5ccccc5)cc4)nn32)CC1 [Zanubrutinib] ?
A. 8.34

----------
biological target: LCK (Homo sapiens)
Sequence (P06239 whole entry): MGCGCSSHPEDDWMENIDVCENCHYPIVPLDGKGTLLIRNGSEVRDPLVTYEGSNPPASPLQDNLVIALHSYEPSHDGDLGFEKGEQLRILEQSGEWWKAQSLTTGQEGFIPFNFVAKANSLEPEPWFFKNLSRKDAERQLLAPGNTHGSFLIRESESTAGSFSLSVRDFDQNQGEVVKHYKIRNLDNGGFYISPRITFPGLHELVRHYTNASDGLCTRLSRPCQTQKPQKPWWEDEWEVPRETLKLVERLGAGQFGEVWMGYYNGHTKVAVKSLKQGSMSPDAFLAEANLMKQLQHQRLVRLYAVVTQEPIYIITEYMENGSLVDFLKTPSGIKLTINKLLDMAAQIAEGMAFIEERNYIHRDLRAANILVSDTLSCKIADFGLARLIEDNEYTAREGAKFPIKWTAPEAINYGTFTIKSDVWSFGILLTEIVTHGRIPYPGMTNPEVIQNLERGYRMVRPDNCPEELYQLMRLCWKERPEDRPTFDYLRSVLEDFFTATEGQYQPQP
Attribute measured: pIC50
Keep in mind that pIC50 stands for -log10 of concentration in molar terms.

Q. What pIC50 value was documented for this compound, CC#CC(=O)N1CC[C@@H](n2c(=O)n(-c3ccc(Oc4ccccc4)cc3)c3c(N)ncnc32)C1 ?
A. 6.10

Q. What pIC50 value was documented for this compound, CC#CC(=O)N1CCC[C@H]1c1nc(-c2ccc(C(=O)Nc3ccccn3)cc2)c2c(N)nccn12 ?
A. 5.28

----------
target: UniProt:P41240; experiment: mobility shift assay (MSA)
Sequence (P41240 whole entry): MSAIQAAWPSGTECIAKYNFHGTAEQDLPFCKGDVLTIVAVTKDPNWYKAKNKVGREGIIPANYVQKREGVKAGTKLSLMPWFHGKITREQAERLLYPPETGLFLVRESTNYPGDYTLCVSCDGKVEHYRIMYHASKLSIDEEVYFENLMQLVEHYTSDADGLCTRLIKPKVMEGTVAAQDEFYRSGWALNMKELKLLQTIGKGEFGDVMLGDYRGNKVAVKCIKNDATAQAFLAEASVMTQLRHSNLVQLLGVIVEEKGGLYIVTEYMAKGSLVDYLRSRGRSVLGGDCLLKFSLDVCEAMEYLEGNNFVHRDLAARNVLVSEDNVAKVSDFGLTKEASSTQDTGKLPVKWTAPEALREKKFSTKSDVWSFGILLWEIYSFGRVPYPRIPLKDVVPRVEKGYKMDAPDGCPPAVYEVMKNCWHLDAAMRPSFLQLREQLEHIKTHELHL
I'd appreciate it if you could supply pIC50 values for the items below.
Keep in mind that pIC50 stands for -log10 of concentration in molar terms.

Q. What pIC50 value was documented for this molecule, CC#CC(=O)N1CCC[C@H]1c1nc(-c2ccc(C(=O)Nc3ccccn3)cc2)c2c(N)nccn12 ?
A. 5.18

Q. What pIC50 value was documented for this molecule, CC#CC(=O)N1CC[C@@H](n2c(=O)n(-c3ccc(Oc4ccccc4)cc3)c3c(N)ncnc32)C1 ?
A. 6.35

----------
Attribute measured: IC50 (nM)
Just the number please, in nM, no unit attached.

Q. For BLK (Homo sapiens, UniProt P51451), provide IC50 of CC#CC(=O)N1CCC[C@H]1c1nc(-c2ccc(C(=O)Nc3ccccn3)cc2)c2c(N)nccn12 please.
A. 2270

Q. For BLK (Homo sapiens, UniProt P51451), provide IC50 of CC#CC(=O)N1CC[C@@H](n2c(=O)n(-c3ccc(Oc4ccccc4)cc3)c3c(N)ncnc32)C1 please.
A. 1280

----------
biological target: LYNa (Homo sapiens); assay: mobility shift assay (MSA)
Sequence (P07948 whole entry): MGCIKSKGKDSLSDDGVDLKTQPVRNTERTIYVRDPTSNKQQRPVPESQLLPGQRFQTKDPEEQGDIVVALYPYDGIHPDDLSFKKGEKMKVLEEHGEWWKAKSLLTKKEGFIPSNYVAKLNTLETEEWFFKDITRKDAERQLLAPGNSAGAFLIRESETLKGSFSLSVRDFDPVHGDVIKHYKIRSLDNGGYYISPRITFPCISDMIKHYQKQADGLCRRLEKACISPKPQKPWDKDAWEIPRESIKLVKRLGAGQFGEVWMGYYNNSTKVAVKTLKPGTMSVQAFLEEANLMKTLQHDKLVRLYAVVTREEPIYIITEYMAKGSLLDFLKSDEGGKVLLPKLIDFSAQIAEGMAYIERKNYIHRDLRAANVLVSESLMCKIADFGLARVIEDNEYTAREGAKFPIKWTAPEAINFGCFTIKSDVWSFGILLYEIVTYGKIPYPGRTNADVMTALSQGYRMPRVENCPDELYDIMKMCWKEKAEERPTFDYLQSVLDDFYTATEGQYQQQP
Attribute measured: IC50 (µM)
Just the number please, in µM, no unit attached.

Q. What IC50 value was documented for this compound, CC#CC(=O)N1CC[C@@H](n2c(=O)n(-c3ccc(Oc4ccccc4)cc3)c3c(N)ncnc32)C1 ?
A. 3.49

----------
Protein target, amino acids: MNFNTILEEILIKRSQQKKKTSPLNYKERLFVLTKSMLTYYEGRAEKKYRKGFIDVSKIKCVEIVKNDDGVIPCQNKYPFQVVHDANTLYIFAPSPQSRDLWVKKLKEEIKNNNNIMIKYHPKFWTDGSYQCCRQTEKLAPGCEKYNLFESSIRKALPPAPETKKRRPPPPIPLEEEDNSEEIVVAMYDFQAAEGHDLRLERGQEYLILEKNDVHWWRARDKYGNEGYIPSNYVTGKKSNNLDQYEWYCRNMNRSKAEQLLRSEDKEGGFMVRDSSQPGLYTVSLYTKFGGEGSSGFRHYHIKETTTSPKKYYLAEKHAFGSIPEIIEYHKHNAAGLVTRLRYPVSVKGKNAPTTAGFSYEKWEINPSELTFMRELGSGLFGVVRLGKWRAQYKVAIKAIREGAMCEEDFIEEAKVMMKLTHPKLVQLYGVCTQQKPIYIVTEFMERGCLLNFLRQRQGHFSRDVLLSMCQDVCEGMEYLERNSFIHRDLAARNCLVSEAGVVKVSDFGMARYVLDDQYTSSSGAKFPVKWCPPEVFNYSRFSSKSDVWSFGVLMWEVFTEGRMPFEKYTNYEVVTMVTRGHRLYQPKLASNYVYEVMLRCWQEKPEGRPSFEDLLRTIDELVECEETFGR
Attribute measured: pIC50
Keep in mind that pIC50 stands for -log10 of concentration in molar terms.

Q. What pIC50 value was documented for this molecule, C=CC(=O)N1CCC([C@@H]2CCNc3c(C(N)=O)c(-c4ccc(Oc5ccccc5)cc4)nn32)CC1 ?
A. 8.35

----------
target: FYN (Homo sapiens)
Sequence (P06241 whole entry): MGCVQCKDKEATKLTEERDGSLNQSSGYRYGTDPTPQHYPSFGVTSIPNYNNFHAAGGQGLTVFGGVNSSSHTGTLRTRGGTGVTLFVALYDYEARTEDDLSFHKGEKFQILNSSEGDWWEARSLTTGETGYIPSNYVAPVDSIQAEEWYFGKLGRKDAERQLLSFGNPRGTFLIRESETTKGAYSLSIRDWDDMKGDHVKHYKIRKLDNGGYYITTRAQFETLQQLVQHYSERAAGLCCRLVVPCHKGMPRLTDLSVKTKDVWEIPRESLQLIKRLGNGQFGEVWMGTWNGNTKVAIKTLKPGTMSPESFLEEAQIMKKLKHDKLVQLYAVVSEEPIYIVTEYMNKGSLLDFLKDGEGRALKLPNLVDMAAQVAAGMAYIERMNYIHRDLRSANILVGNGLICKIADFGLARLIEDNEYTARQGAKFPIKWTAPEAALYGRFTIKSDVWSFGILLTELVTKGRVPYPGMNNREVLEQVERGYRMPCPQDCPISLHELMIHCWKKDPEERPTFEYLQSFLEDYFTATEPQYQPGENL
Attribute measured: pIC50
Keep in mind that pIC50 stands for -log10 of concentration in molar terms.

Q. What pIC50 value was documented for this compound, CC#CC(=O)N1CC[C@@H](n2c(=O)n(-c3ccc(Oc4ccccc4)cc3)c3c(N)ncnc32)C1 ?
A. 5.65

----------
biological target: RIPK2 (Homo sapiens, UniProt O43353); experiment: KinAffinity cell-based binding assay using PBMC
Sequence (O43353 whole entry): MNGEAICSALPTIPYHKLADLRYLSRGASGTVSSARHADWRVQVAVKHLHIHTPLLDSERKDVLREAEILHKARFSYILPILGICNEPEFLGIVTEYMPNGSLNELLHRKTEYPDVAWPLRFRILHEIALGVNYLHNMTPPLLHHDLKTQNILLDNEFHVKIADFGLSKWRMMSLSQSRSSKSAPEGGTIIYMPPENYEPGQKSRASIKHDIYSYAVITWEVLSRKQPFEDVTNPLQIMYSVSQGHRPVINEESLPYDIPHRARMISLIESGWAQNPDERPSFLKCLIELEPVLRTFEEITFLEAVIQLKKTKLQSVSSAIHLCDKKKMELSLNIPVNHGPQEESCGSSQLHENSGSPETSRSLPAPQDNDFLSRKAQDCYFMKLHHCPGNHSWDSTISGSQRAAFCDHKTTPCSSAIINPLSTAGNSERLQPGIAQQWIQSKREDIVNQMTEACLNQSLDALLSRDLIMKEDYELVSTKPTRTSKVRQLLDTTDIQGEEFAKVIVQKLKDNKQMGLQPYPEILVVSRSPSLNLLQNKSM
pKd: −log10 of the molar value.
Attribute measured: pKd

Q. What pKd value was documented for this compound, CC#CC(=O)N1CC[C@@H](n2c(=O)n(-c3ccc(Oc4ccccc4)cc3)c3c(N)ncnc32)C1 ?
A. < 5.52
